Target: hMC4-R (Homo sapiens (Human), UniProt P32245)
Sequence (P32245 whole entry): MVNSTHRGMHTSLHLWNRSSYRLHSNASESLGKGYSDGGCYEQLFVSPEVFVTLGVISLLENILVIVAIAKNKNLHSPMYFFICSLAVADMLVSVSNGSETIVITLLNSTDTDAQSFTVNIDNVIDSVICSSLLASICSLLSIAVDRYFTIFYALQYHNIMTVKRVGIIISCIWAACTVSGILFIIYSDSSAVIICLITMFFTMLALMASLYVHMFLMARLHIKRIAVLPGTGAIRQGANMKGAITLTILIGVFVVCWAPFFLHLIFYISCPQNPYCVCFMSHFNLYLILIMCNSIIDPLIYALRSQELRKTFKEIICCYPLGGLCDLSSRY
Test: High and low density hMC4-R functional assay (cAMP, HEK293-T-REx-MC4-R cells)
Type: cell-based
Conditions: 10 ng/mL Doxycycline (high density hMC4-R system)
Please provide measured pEC50 for the entries that follow.
Value format note: pEC50 is -log10 of concentration (mol/L); just state the number.

Give the measured pEC50 of COc1ccc(C[C@H]2NC(=O)[C@H](CCN)NC(=O)[C@@H](NC(=O)[C@H](CCCNC(=N)N)NC(C)=O)CCC(=O)NCCC[C@@H](C(N)=O)NC(=O)[C@H](Cc3c[nH]c4ccccc34)NC(=O)[C@H](CCCNC(=N)N)NC2=O)cc1 [Example 16] . 9.80

For the compound CC(=O)N[C@@H](CCCNC(=N)N)C(=O)N[C@H]1CCC(=O)NCCC[C@@H](C(N)=O)NC(=O)[C@H](Cc2c[nH]c3ccccc23)NC(=O)[C@H](CCCNC(=N)N)NC(=O)[C@@H](Cc2cccc(C#N)c2)NC(=O)[C@H](CCN)NC1=O [Example 6] , what pEC50 is on record? 8.70

Name the reported pEC50 value associated with the compound CC(=O)N[C@H](CCCNC(=N)N)C(=O)N[C@H]1CCCNC(=O)CC[C@@H](C(N)=O)NC(=O)[C@H](Cc2c[nH]c3ccccc23)NC(=O)[C@H](CCCNC(=N)N)NC(=O)[C@@H](Cc2ccccc2F)NC(=O)[C@H](Cc2c[nH]cn2)NC1=O [Example 53] 9.89

Look at this compound and give its reported pEC50. CC(=O)N[C@@H](CCCNC(=N)N)C(=O)N[C@H]1CCC(=O)NCCC[C@@H](C(N)=O)NC(=O)[C@H](Cc2c[nH]c3ccccc23)NC(=O)[C@H](CCCNC(=N)N)NC(=O)[C@@H](Cc2cccc(F)c2)NC(=O)[C@H](CCN)NC1=O [Example 10] 9.77

Suppose we examine the compound CC(=O)N[C@@H](CCCNC(=N)N)C(=O)N[C@H]1CCC(=O)NCCC[C@@H](C(N)=O)NC(=O)[C@H](Cc2c[nH]c3ccccc23)NC(=O)[C@H](CCCNC(=N)N)NC(=O)[C@@H](Cc2ccc(Cl)cc2)NC(=O)[C@H](CCN)NC1=O [Example 3] ; what pEC50 value has been reported? 9.80

Entry under review: CC(=O)N[C@@H](CCCNC(=N)N)C(=O)N[C@H]1CCC(=O)NCCC[C@@H](C(N)=O)NC(=O)[C@H](Cc2c[nH]c3ccccc23)NC(=O)[C@H](CCCNC(=N)N)NC(=O)[C@@H](Cc2ccc(C#N)cc2)NC(=O)[C@@H]2CCCN2C1=O [Example 39] . Reported pEC50? 9.00

---

Biological target: MC1-R
Assay: Competitive inhibition binding assay using [I125]-NDP-α-MSH, MC1-R
Details: membranes of B-16 mouse melanoma cells (endogenous MC1-R), in some instances HEK-293 hMC1-R
measure name: log10 Ki (log10 of the value in nM)
Values reflect log10 of reported Ki (nM).

// log10 Ki lookup, key: "CC(=O)N[C@@H](CCCNC(=N)N)C(=O)N[C@H]1CCCNC(=O)CC[C@@H](C(N)=O)NC(=O)[C@H](Cc2c[nH]c3ccccc23)NC(=O)[C@H](CCCNC(=N)N)NC(=O)[C@@H](Cc2ccccc2F)NC(=O)[C@H](CC(N)=O)NC1=O" 2.53

May I ask what log10 Ki has been recorded for "CC(=O)N[C@@H](CCCNC(=N)N)C(=O)N[C@H]1CCC(=O)NCCC[C@@H](C(N)=O)NC(=O)[C@H](Cc2c[nH]c3ccccc23)NC(=O)[C@H](CCCNC(=N)N)NC(=O)[C@@H](Cc2ccc(F)cc2)NC(=O)[C@@H]2CCCN2C1=O" ? 2.11

Value lookup for log10 Ki; key = "CC(=O)N[C@@H](CCCNC(=N)N)C(=O)N[C@H]1CCC(=O)NCCC[C@@H](C(=O)O)NC(=O)[C@H](Cc2c[nH]c3ccccc23)NC(=O)[C@H](CCCNC(=N)N)NC(=O)[C@@H](Cc2ccccc2Cl)NC(=O)[C@H](CCCN)NC1=O" 0.90

Look at this compound and give its reported log10 Ki. "CC(=O)NCC[C@@H]1NC(=O)[C@@H](NC(=O)[C@H](CCCNC(=N)N)NC(C)=O)CCC(=O)NCCC[C@@H](C(N)=O)NC(=O)[C@H](Cc2c[nH]c3ccccc23)NC(=O)[C@H](CCCNC(=N)N)NC(=O)[C@@H](Cc2ccccc2Cl)NC1=O" 1.48

Request the reported log10 Ki associated with "CC(=O)N[C@@H](CCCNC(=N)N)C(=O)N[C@H]1CCC(=O)NCCC[C@@H](C(N)=O)NC(=O)[C@H](Cc2c[nH]c3ccccc23)NC(=O)[C@H](CCCNC(=N)N)NC(=O)[C@@H](Cc2ccccc2Cl)NC(=O)[C@H]([C@@H](C)OCc2ccccc2)NC1=O" 1.08

So what's the measured log10 Ki for this one? "CC(=O)N[C@@H](CCCNC(=N)N)C(=O)N[C@H]1CCC(=O)NCCC[C@@H](C(N)=O)NC(=O)[C@H](Cc2c[nH]c3ccccc23)NC(=O)[C@H](CCCNC(=N)N)NC(=O)[C@@H](Cc2ccccc2C)NC(=O)[C@H](CCC(N)=O)NC1=O" 2.02

Name the reported log10 Ki value associated with the compound "CC(=O)N[C@@H](CCCNC(=N)N)C(=O)N[C@H]1CCC(=O)NCCC[C@@H](C(N)=O)NC(=O)[C@H](Cc2c[nH]c3ccccc23)NC(=O)[C@H](CCCNC(=N)N)NC(=O)[C@@H](Cc2ccc(F)cc2)NC(=O)[C@H](CC(N)=O)NC1=O" 2.18
